System: MS2 coat protein
Assay: apparent KD of MS2 coat protein; designed switch direction (-1 OFF switch, 1 ON switch): -1; higher = weaker reporter binding
Details: Eterna round: R95; input ligand: none
Label scheme for apparent KD of MS2 coat protein: A: < 40 nM; B: ≥ 40 nM and < 100 nM; C: ≥ 100 nM

**Query** Hey, which category is CUGGUCCGAGGAUAUAUUAAGUGAUACAUGAGGAUCACCCAUGUUAUUUAAUGGAUGUUAAUAGAAGGCGGACUAG [JL-ex5-3.19] (puzzle: Exclusion 5) in, do you know?
**Result** A

**Query** Hey, which category is AAGAAACAUGAGGAUCACCCAUGUGAGGAUAUAGAAAGAAAGAAAAGAAAAGAAAGAACUAGAAGGCACAAAGA [JR_Exclu1_Sub030] (puzzle: Exclusion 1) in, do you know?
**Result** A

**Query** Hey, which category is GCUUGGCGAGGAUAUACAUGAGGAUCACCCAUGUGAGAGAAAAAAGUGAGGAAGAAAAGUAGAAGGCGCUGAGG [Mat - Exclusion 3 - Mod of Salish D57] (puzzle: Exclusion 3) in, do you know?
**Result** B

**Query** Hey, which category is CUGGUCCGAGGAUAUAUUAUGUGAUACAUGAGGAUCACCCAUGUUAUAUGAUGGAUGUUAAUAGAAGGCGGACUAG [JL-ex5-3.20] (puzzle: Exclusion 5) in, do you know?
**Result** C

**Query** Hey, which category is AAUAAACAUGAGGAUCACCCAUGUGAGGAUAUACAAAUAAAUAAAUAAAUAAAUAAUAGUAGAAGGCACAAUAA [Excls1-II] (puzzle: Exclusion 1) in, do you know?
**Result** B

**Query** Hey, which category is GACCGGACGUGGUCAGGUAACAUGAGGAUCACCCAUGUAGGUCUAGGAACAAGCCUUUUGUAGGCUCGUCUUAUAAA [JR_SV3TOV1_Sub059] (puzzle: Sensor v3, turn-off variant 1) in, do you know?
**Result** B

**Query** Hey, which category is CUGAGGUAGCGGUCCUAUGACAUGAGGAUCACCCAUGUGCCUCGCUACAAGCUUUUUGCUCGUUUUAUGAUUCUCGG [JL Atriat mod 11] (puzzle: Sensor v3, turn-off variant 1) in, do you know?
**Result** B

**Query** Hey, which category is UAAUGCAAGUAAAGAUCCUACAUGAGGAUCACCCAUGUGCUCGUCUUAUAAAGUACUAUCACGAAAGUGAUAGUACA [Mat - Sensor v3 - turn-off var 1 - Eli Mod - D83] (puzzle: Sensor v3, turn-off variant 1) in, do you know?
**Result** C

**Query** Hey, which category is GAUGUGGGUUUUCAGAGUAACAUGAGGAUCACCCAUGUAGAAGUUGAAGGUAUCAAGCGAAUGGCUCGUCAUAUGUG [JR_SV3TOV1_Sub050] (puzzle: Sensor v3, turn-off variant 1) in, do you know?
**Result** C

**Query** Hey, which category is UUAUACGUUGAGGAUAUGCGAUUUAGUAUAGUUGCAGAAGGCGAUACAUGAGGAUCACCCAUGUUUAUGGGCAU [LRO-Ex6-07] (puzzle: Exclusion 6) in, do you know?
**Result** C

**Query** Hey, which category is AUAAAAUAGGAGGAUAUCGUAUCGGAAACGAUACGAGAAGGUCUAACAUGAGGAUCACCCAUGUUCCUCAAUAA [Mat - Exclusion 6 - Eli Mod - D46] (puzzle: Exclusion 6) in, do you know?
**Result** A

**Query** Hey, which category is UAGUACAUCUAUGGGAGUAACAUGAGGAUCACCCAUGUAUGUCUUGUUUUUUGUUCGUCAUAGGCCUUUUGAUUGGC [JR_SV3TOV1_Sub028] (puzzle: Sensor v3, turn-off variant 1) in, do you know?
**Result** C

**Query** Hey, which category is AGUACUAACACGAGUGUGUUAGUACAAUAAGCUUGUGAAACAUGAGGAUCACCCAUGUCCUCAUAAGCUCGUCUUAU [salish99_TOv2_r3_073] (puzzle: Sensor v3, turn-off variant 2) in, do you know?
**Result** A

**Query** Hey, which category is AGUACUACCACGAAAGUGUUAGUACAAUAAGCUUGUGAAACAUGAGGAUCACCCAUGUCCUCAUAAGCUCGUCUUAU [salish99_TOv2_r3_021] (puzzle: Sensor v3, turn-off variant 2) in, do you know?
**Result** A

**Query** Hey, which category is GAGAAUUUAUAGGAUAUCGUAUGCAUAAUUUAACGAGAAGGAUGAACAUGAGGAUCACCCAUGUGGUAUCAUGG [salish99_ex6_r3_001] (puzzle: Exclusion 6) in, do you know?
**Result** C

**Query** Hey, which category is GUGGUCCGAGGAUAUAUUAUGUGAUACAUGAGGAUCACCCAUGUUAUAUAAUGGAUGUUAGUAGAAGGCGGACUAC [Mat - Exclusion 5 - JL mod - D83] (puzzle: Exclusion 5) in, do you know?
**Result** B

**Query** Hey, which category is CCCAGGGCAGGAUAUAGAGGGCGAAACAUGAGGAUCACCCAUGUGACCUCGGAACAGCUGCUAGAAGGGCCAAAUU [Beesquti] (puzzle: Exclusion 5) in, do you know?
**Result** A

----------
System: MS2 coat protein
Assay: apparent KD of MS2 coat protein; higher = weaker reporter binding
Details: Eterna round: R107; input ligand: tryptophan 2.4 mM
PROPERTY LABEL: apparent KD of MS2 coat protein (nM)
Number only, in nM; omit the unit.

Entry ACAUGAGGAUCACCCAUGUAAUUUACAGAAGGAGCGUGAUGGAUCACAGGUAGGUCGCUGUACUGCGAAAGCACUCUCAUGAAUA [JR_Nu_SSArginiA_Sub025] — recorded apparent KD of MS2 coat protein = 19

Entry UCGCUCUGGGUGGGAUCCGGAGAUGUGGAAGGAGCGCUGGAAACAGCAGGUAGGUCGCCAACGGACAUGAGGAUCACCCAUGUAC [Same State - Arginine A (Freestyle 18)] — recorded apparent KD of MS2 coat protein = 59

Entry AUGUCAUUGGUGCAGCUGUUAAAUGGCGAUACCAGCGUGGAAACACGCCCUUGGCAGCGCCAAAACAUGAGGAUCACCCAUGUUA [Zlin] — recorded apparent KD of MS2 coat protein = 27.1

Entry UCUACAUGAGGAUCACCCAUGUGCCAUGAUACCAGACAUGAAAAUGUCCCUUGGCAGCAUGGGUAGCGCAUCCGAAAGGAUGCGU [#06 SameState-TheophyllineA] — recorded apparent KD of MS2 coat protein = 33.4

Entry CACAUGAGGAUCACCCAUGUCUGAACUGAAGGAGCGCUAAACAAGGCAGGUAGGUCGCGGAAUCCUGUGUGCAUAUGCACACGGG [9.W] — recorded apparent KD of MS2 coat protein = 21.5

Entry UGGUACAUGAGGAUCACCCAUGUUCCAGAUACCAGUGUCCCGCUGCACCCUUGGCAGCUGGUGGCACAUGAGGAUCACCCAUGUG [Exclusion Theophylline A GF12] — recorded apparent KD of MS2 coat protein = 15.1

Entry AGUGAUGACCGAAGGAGCGCGGGAAACAUGAGGAUCACCCAUGUACUCCUCAGUGUUAUAACGCAGGUAGGUCGCGGUUAUGGCU [X-ArgiB-ms2@26] — recorded apparent KD of MS2 coat protein = 279

Entry AUGUCGUUGAAUACAGCGGCAUGGAGUGAUACCAGAAUGAUCAAAUUCCCUUGGCAGCAUGACAUGAGGAUCACCCAUGUUCGAU [SSTheo A #15] — recorded apparent KD of MS2 coat protein = 77.5

Entry ACGACGCAUACAGAUACCAGUAGAACAUGAGGAUCACCCAUGUCUGAGGCGCUCCGCCACUGCCCUUGGCAGCUGUAUGCGUCAG [SSTheo B #11] — recorded apparent KD of MS2 coat protein = 9.81

Entry AUACAUGAGGAUCACCCAUGUCAUUCAGAAGGAGCGUCAUUAUUGACAGGUAGGUCGCUGAUAAAAUUUUUAUACAUUAUGUUUA [JR_SSArginiA_Sub014] — recorded apparent KD of MS2 coat protein = 17.3

Entry AUAGUCUAGAGUGAUACCAGACAACAUGAGGAUCACCCAUGUAGCAUAUGGUUAUCAUGAGUCCCUUGGCAGCACGCAUGUAUAG [JR_ExcTheophyB_Sub012] — recorded apparent KD of MS2 coat protein = 13.2

Entry GGUCUGUGGAGCGAUACCAGCUUGAGUGUACUGGCCAGGUACAUGAGGAUCACCCAUGUAAGCCCUUGGCAGCGCUCCAGAGACC [#1 Exclusion - Theophylline B Attempt #17 (HarryS)] — recorded apparent KD of MS2 coat protein = 10.9

Entry UACCGAUGAAGAAGGAGCGUAUGCUUAUAUGAUGGUAACAUGAGGAUCACCCAUGUCAGUAUACAGGUAGGUCGCUUCAUCGGUA [EAB NP+V+V2 #22] — recorded apparent KD of MS2 coat protein = 45.8

Entry GCCAUCGGCGGAAGCCGAUGGGAUACAGAAGGAGCGUAGGAAACUACAGGUAGGUCGCUGGACAUGAGGAUCACCCAUGUGAUAG [SSAA #11] — recorded apparent KD of MS2 coat protein = 22.7

Entry GGUGAUCCGUAUCACCGGAUCACCGGUGAUACCAGCAUCGAAAGAUGCCCUUGGCAGCACCAACAUGAGGAUCACCCAUGUAAUA [(M)'-(T)'-(M)''-(T1)-(T2)-(M1)-(M2)_Design6b] — recorded apparent KD of MS2 coat protein = 143

Entry GGCCUAGCGAGCGCUCGCUAGGCCGCGGAUACCAGCGAGGUCCAUCGCCCUUGGCAGCCGAACAUGAGGAUCACCCAUGUCGGUA [#1 Same State - Theophylline A Attempt #15 (HarryS)] — recorded apparent KD of MS2 coat protein = 9.68

Entry CACUAUGAGGUCGAUACCAGUACUGAGUUGUACAUGAGGAUCACCCAUGUAAAUGUUCGCUACCCUUGGCAGCGAUAACAUUGCA [theeternabot_sameState_MS2_Theo_B_34] — recorded apparent KD of MS2 coat protein = 246
